# assay.method.text: compounds altering in vitro BBB leakiness – cell-based, FITC-avidin fluorescence, HTS, primary screen (AID 1963498); further: test concentration not given here
# applied.conditions: brain endothelial barrier, actives lie on both sides
Catalogue of compounds with associated fold change permeability

compound: NOCC(=O)O
fold change permeability: 0.9

compound: N[C@@H](CCCC(=O)O)C(=O)O
fold change permeability: 1.1

compound: Nc1ncnc2c1ncn2[C@@H]1O[C@H](COP(=O)(O)OP(=O)(O)OP(=O)(O)OP(=O)(O)OC[C@@H]2O[C@H](n3cnc4c(N)ncnc43)C(O)[C@@H]2O)[C@H](O)C1O (stereo partly specified)
fold change permeability: 1

compound: C[N+](C)(C)CC=O
fold change permeability: 1.1

compound: CCOc1cc(C(=O)Nc2ccc(Cl)c(-c3nc4ccccc4[nH]3)c2)cc(OCC)c1OCC
fold change permeability: 1.7

compound: CSc1ccccc1N1CCN(CCCCCC(=O)NC2CCCc3ccccc32)CC1 (stereo unspecified)
fold change permeability: 1.3

compound: c1ccc2c(c1)CCC[C@H]2Nc1nc2ccccc2[nH]1
fold change permeability: 1.3

compound: O=C(Nc1ccncc1)c1cc([N+](=O)[O-])ccc1Cl
fold change permeability: 1

compound: COc1ccc(/C=C/C(=O)Nc2ccccc2C(=O)O)cc1OC
fold change permeability: 1.4

compound: CC[C@H](NC(=O)c1c(O)c(-c2ccccc2)nc2ccccc12)c1ccccc1
fold change permeability: 1.1

compound: O=C1NC(=O)c2cc(Nc3ccccc3)c(Nc3ccccc3)cc21
fold change permeability: 0.9

* * *

# assay.method.text: compounds altering in vitro BBB leakiness – cell-based, FITC-avidin fluorescence, HTS, primary screen (AID 1963498); further: test concentration not given here
# applied.conditions: brain endothelial barrier, actives lie on both sides
Active and inactive are the calls of the source. Cut-off read from the data, not from the text of the source: active = fold change permeability below about 0.7 or above about 1.3; inactive = in between.
Catalogue of compounds with associated fold change permeability

molecule.smiles: CN(C)CC[C@@H](c1ccc(Cl)cc1)c1ccccn1
fold change permeability: 1.1 (inactive)
--
molecule.smiles: C[C@@H](O[C@H]1OCCN(Cc2n[nH]c(=O)[nH]2)[C@H]1c1ccc(F)cc1)c1cc(C(F)(F)F)cc(C(F)(F)F)c1
fold change permeability: 1.4 (active)
--
molecule.smiles: C[C@H](CSC(=O)c1ccccc1)C(=O)N1C[C@@H](Sc2ccccc2)C[C@H]1C(=O)O
fold change permeability: 1 (inactive)
--
molecule.smiles: N[C@H](C(=O)O)[C@H](O)C(=O)O
fold change permeability: 0.9 (inactive)
--
molecule.smiles: CN1CCC(=C2c3ccccc3CC(=O)c3sccc32)CC1
fold change permeability: 1.4 (active)
--
molecule.smiles: O=C(O)c1cc([N+](=O)[O-])ccc1NCCCc1ccccc1
fold change permeability: 1 (inactive)
--
molecule.smiles: CN(C)CCCN1c2ccccc2Sc2ccc(Cl)cc21
fold change permeability: 1.1 (inactive)
--
molecule.smiles: CC1=C(C(=O)O)N2C(=O)[C@@H](NC(=O)[C@H](N)C3=CCC=CC3)[C@H]2SC1
fold change permeability: 0.9 (inactive)
--
molecule.smiles: CCCCCCCC/C=C\CCCCCCCC(=O)O
fold change permeability: 0.9 (inactive)
--
molecule.smiles: NCCCNCCSP(=O)(O)O
fold change permeability: 0.9 (inactive)
--
molecule.smiles: CCCCCCC(=O)OC1CC(C)(C)NC(C)(C)C1
fold change permeability: 0.9 (inactive)

* * *

# assay.method.text: compounds altering in vitro BBB leakiness – cell-based, FITC-avidin fluorescence, HTS, primary screen (AID 1963498); further: test concentration not given here
# applied.conditions: brain endothelial barrier, actives lie on both sides
Calls of active or inactive are those of the source. Rule as the data show it: active = fold change permeability below about 0.7 or above about 1.3; inactive = in between.
Classes used: active, inactive

compound: CC(C)C(=O)Nc1n[nH]c2cc(-c3cccc(NS(=O)(=O)C4CC4)c3)ccc12
classification: inactive
//
compound: CC(C)NCC(O)COc1ccc(CCOCC2CC2)cc1 (configuration not stated)
classification: inactive
//
compound: O=C(c1cccc(-c2ccc(-c3cn(C(=O)N4CCCCC4c4ccccc4)nn3)cc2)c1)N1CCCCC1 (configuration not stated)
classification: inactive
//
compound: CCOC(=O)C1=C(C)NC(C)=C(C(=O)OC)C1c1cccc([N+](=O)[O-])c1 (configuration not stated)
classification: inactive
//
compound: NC(N)=NC(=O)c1nc(Cl)c(N2CCCCCC2)nc1N
classification: inactive
//
compound: O=C(O)CN(CCN(CC(=O)O)CC(=O)O)CCN(CC(=O)O)CC(=O)O
classification: inactive
//
compound: CC(Nc1nc(N2CCNCC2)nc2ccccc12)c1ccccc1 (configuration not stated)
classification: active
//
compound: CC1(C)CCC=[N+]1[O-]
classification: inactive
//
compound: O=c1cc2c(=O)oc3cc(O)c(O)oc3c2c(O)c1O
classification: active
//
compound: CNC[C@H](O)c1ccc(O)c(O)c1
classification: inactive
//
compound: CN1C2CCCC1CC(NC(=O)c1nn(C)c3ccccc13)C2 (configuration not stated)
classification: active
//
compound: CN(C)CC/C=C1/c2ccccc2Sc2ccc(Cl)cc21
classification: inactive
//
compound: C#CCN(C)Cc1ccccc1
classification: active
//
compound: CN1C(=O)CC[C@H]1c1cccnc1
classification: inactive
//
compound: Cn1cnc([N+](=O)[O-])c1Sc1ncnc2nc[nH]c12
classification: inactive
//
compound: CCCOC(=O)c1c(-c2ccccc2)nc(CC)c(C(=O)SCC)c1CCC
classification: active
//
compound: Cc1ccccc1N1CCN(CCc2nnc3n2CCCC3)CC1
classification: inactive
//
compound: CC1(C)SCCN(S(=O)(=O)c2ccc(OCC#CCO)cc2)[C@H]1C(=O)NO
classification: inactive
//
compound: CC(N)(Cc1ccc(O)c(O)c1)C(=O)O (configuration not stated)
classification: inactive
//
compound: CCC1(C)CC(=O)NC1=O (configuration not stated)
classification: active
//
compound: C=CC(N)CCC(=O)O (configuration not stated)
classification: active
//
compound: CC1=C(C(=O)Nc2ccc3[nH]ncc3c2)C(c2ccc(F)cc2)NC(=O)N1 (configuration not stated)
classification: inactive
//
compound: NS(=O)(=O)C#Cc1ccccc1
classification: active
//
compound: NC1(C(=O)O)CCCCC1
classification: inactive
//
compound: CCCCCCCCCCCCCCCCCCOC[C@H](COP(=O)([O-])OCC[N+](C)(C)C)OC
classification: active
//
compound: O=[N+]([O-])c1ccc(CSc2ncnc3c2ncn3[C@@H]2O[C@H](CO)[C@@H](O)[C@H]2O)cc1
classification: inactive
//
compound: CCCC(CCC)C(=O)O
classification: inactive
//
compound: N=C(N)SCCN
classification: inactive
//
compound: COc1cc(O)cc(CCc2ccc(OC)c(O)c2)c1
classification: active
//
compound: CCOC(=O)COc1ccc2c(c1)C[C@@H](NC[C@H](O)c1cccc(Cl)c1)CC2
classification: inactive
//
compound: CSc1c(C)c(SC)n2ccncc12
classification: active
//
compound: CCNCc1nc2c(N)nc3ccccc3c2n1CC(C)(C)O
classification: inactive
//
compound: Clc1ccc(N2CCN(Cc3cc4ccccn4n3)CC2)cc1
classification: active
//
compound: NC1(C(=O)O)CCc2cc(C(=O)O)ccc21 (configuration not stated)
classification: inactive
//
compound: CC(CN1c2ccccc2Sc2ccccc21)N(C)C (configuration not stated)
classification: inactive
//
compound: Cc1nc2sccn2c(=O)c1CCN1CCC(=C(c2ccc(F)cc2)c2ccc(F)cc2)CC1
classification: active
//
compound: c1ccc2c(c1)CCCC2C1=NCCN1 (configuration not stated)
classification: active
//
compound: Cc1ccc(C(=O)Nc2ccc(S(=O)(=O)O)c3cc(S(=O)(=O)O)cc(S(=O)(=O)O)c23)cc1NC(=O)c1cccc(NC(=O)Nc2cccc(C(=O)Nc3cc(C(=O)Nc4ccc(S(=O)(=O)O)c5cc(S(=O)(=O)O)cc(S(=O)(=O)O)c45)ccc3C)c2)c1
classification: active
//
compound: NC(=O)c1cc[n+](CC2=C(C(=O)O)N3C(=O)[C@@H](NC(=O)[C@@H](c4ccccc4)S(=O)(=O)[O-])[C@H]3SC2)cc1
classification: inactive
//
compound: CCCN(CCC)C(=O)C(CCC(=O)O)NC(=O)c1ccccc1 (configuration not stated)
classification: active
//
compound: N#Cc1cc2nc(O)c(O)nc2cc1[N+](=O)[O-]
classification: inactive
//
compound: O=C(OC1C[C@@H]2CC3C[C@H](C1)N2CC3=O)c1c[nH]c2ccccc12 (some centres not stated)
classification: inactive
//
compound: NS(=O)(=O)c1cc2c(cc1Cl)NC=NS2(=O)=O
classification: inactive
//
compound: NC(=O)c1sc(-c2ccsc2)cc1N
classification: inactive
//
compound: CCCCCCNC(=O)n1cc(F)c(=O)[nH]c1=O
classification: inactive
//
compound: CC1CNc2c(cccc2S(=O)(=O)N[C@@H](CCCN=C(N)N)C(=O)N2CC[C@@H](C)C[C@@H]2C(=O)O)C1 (some centres not stated)
classification: inactive
//
compound: NC(=O)C(=O)O
classification: inactive

Taken from PubChem BioAssay.
